These entries and their values trace back to ChEMBL document CHEMBL1137905.

Please go through the items and note down their IC50.
Molecular target: Protein kinase C beta type (Homo sapiens)
Assay: Inhibitory concentration against recombinant human Protein kinase C beta 2
Numbers only, in nM.

Consider the reported IC50 for these compounds:
* Cc1ccc(NC2=C(c3c[nH]c4ccccc34)C(=O)NC2=O)cc1 | 480
* CC(C)c1cccc(NC2=C(c3c[nH]c4ccccc34)C(=O)NC2=O)c1 | 2860
* COc1cccc(NC2=C(c3c[nH]c4ccccc34)C(=O)NC2=O)c1 | 747
* CN(C)CCCCCn1cc(C2=C(Nc3ccccc3)C(=O)NC2=O)c2ccccc21 | 41
* O=C1NC(=O)C(c2c[nH]c3ccccc23)=C1Nc1cccc(C(F)(F)F)c1 | 1450

Your task in this section: give IC50 for each listed record.
1. Cc1ccccc1NC1=C(c2c[nH]c3ccccc23)C(=O)NC1=O
2. O=C1NC(=O)C(c2c[nH]c3ccccc23)=C1c1c[nH]c2ccccc12

1: 2150; 2: 212

Your task in this section: give IC50 for each listed record.
1. CN(C1=C(c2c[nH]c3ccccc23)C(=O)NC1=O)c1ccccc1
2. O=C1NC(=O)C(c2c[nH]c3ccccc23)=C1NC1CCCCC1

[939, 2450]

---

Biological target: Protein kinase C beta type (Homo sapiens, UniProt P05771)
Sequence (P05771 whole entry): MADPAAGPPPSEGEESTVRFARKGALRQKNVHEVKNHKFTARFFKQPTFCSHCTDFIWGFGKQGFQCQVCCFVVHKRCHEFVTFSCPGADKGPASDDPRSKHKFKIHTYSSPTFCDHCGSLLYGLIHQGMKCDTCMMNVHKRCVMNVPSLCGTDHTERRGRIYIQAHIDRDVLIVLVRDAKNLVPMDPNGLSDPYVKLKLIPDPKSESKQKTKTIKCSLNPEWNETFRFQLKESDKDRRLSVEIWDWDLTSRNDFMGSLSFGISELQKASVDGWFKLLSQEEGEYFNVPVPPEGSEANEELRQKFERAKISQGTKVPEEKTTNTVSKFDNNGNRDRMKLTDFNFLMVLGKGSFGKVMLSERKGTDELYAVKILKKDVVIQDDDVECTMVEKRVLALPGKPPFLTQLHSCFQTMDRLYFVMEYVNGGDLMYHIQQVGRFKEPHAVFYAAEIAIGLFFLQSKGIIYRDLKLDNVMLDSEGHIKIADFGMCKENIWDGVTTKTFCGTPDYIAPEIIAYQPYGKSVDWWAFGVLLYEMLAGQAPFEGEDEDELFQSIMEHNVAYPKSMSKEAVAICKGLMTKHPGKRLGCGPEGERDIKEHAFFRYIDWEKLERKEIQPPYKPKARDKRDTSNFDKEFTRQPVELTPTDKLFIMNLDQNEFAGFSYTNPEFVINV
Test: Inhibitory concentration against recombinant human Protein kinase C beta 1
value.kind: IC50

• O=C1NC(=O)C(c2cn(CCCn3ccnc3)c3ccccc23)=C1Nc1ccccc1 = 21 nM
• O=C1NC(=O)C(c2c[nH]c3ccccc23)=C1c1c[nH]c2ccccc12 = 304 nM

Bench note, Protein kinase C beta type (Homo sapiens, UniProt P05771): entry `O=C1NC(=O)C(c2c[nH]c3ccccc23)=C1Nc1ccccc1` , its IC50 = 395 nM

---

Please go through the items and note down their IC50.
Biological target: Protein kinase C epsilon type (Homo sapiens, UniProt Q02156)
Sequence (Q02156 whole entry): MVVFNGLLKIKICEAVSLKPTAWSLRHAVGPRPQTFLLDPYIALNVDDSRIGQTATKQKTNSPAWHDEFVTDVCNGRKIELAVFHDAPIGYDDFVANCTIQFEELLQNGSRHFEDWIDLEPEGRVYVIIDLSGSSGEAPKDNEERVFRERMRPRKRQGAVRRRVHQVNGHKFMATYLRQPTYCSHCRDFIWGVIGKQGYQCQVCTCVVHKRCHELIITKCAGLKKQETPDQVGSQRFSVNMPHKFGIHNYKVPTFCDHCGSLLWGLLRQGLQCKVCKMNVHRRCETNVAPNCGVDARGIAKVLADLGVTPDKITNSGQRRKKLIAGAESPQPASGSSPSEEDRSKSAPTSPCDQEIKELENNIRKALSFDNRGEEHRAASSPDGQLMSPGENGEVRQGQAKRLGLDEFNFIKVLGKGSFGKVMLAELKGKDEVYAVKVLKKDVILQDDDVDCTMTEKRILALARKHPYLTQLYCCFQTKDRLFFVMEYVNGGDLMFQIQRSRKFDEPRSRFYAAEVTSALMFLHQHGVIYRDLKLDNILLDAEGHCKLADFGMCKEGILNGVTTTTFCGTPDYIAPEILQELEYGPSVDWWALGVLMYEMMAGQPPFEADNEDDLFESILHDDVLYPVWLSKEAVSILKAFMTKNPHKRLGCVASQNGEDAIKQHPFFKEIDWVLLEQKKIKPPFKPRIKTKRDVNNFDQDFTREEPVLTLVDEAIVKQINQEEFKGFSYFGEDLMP
Test: Inhibitory concentration against recombinant human Protein kinase C epsilon
Give bare numbers, in µM.

Consider the reported IC50 for these molecules:
- O=C1NC(=O)C(c2c[nH]c3ccccc23)=C1c1c[nH]c2ccccc12: 7.52
- CN(C)CCCCCn1cc(C2=C(Nc3ccccc3)C(=O)NC2=O)c2ccccc21: 3.91
- CN(C)CCCCn1cc(C2=C(Nc3ccccc3)C(=O)NC2=O)c2ccccc21: 5.87

The reported value for `N=C(N)SCCCn1cc(C2=C(Nc3ccccc3)C(=O)NC2=O)c2ccccc21` in terms of IC50 is 0.058
